Listing of recorded composite z-score by entry.
target: Left-right determination factor 2 (Homo sapiens); test: LEFTY2 binders on small-molecule microarrays, primary screen, biochemical, small-molecule microarray, 635 nm fluorescence scan (AID 1110); conditions: LEFTY2 binding, higher = more signal
Lab note: record just the number, no unit beside it.

Answered examples (3):
{"Compound": "O=C1O[C@H](c2ccccc2)[C@H](c2ccccc2)N2[C@H]1[C@@H](C(=O)Nc1nc3ccccc3s1)[C@]1(C(=O)Nc3ccc(C#CC4(O)CCCCCC4)cc31)[C@H]2c1ccc(OCCO)cc1", "Observation Type": "composite z-score", "Result Value": 0.426}
{"Compound": "COc1ccc(C(O)C2C=CC3C(=O)N(C)C(=O)C3N2N2CCCCC2)c2ccccc12 (stereo unspecified)", "Observation Type": "composite z-score", "Result Value": -0.129}
{"Compound": "COc1ccc(CCN2C(=O)[C@@]3(c4ccc([N+](=O)[O-])cc4)CC(=O)N(C4CCCCC4)[C@@H]3c3ccc(CO)cc32)cc1", "Observation Type": "composite z-score", "Result Value": 0.636}

# compound CC1CC/C=C\[C@H]2OC34C=CCN(C(C)(C)C)C(=O)[C@H]3N(CCCCCCO)C(=O)[C@@H]4C2C(=O)O1 (stereo partly specified) ; its composite z-score = -1.06

# compound C=CC[C@]1(C(=O)N2CCCCC2)N=C(c2ccc(OCCCO)cc2)O[C@H]1c1ccccc1 ; its composite z-score = 0.32

# compound CN1C(=O)C2C=CC(C(O)C3CC=CCC3)N(NC(=O)OC(C)(C)C)C2C1=O (stereo unspecified) ; its composite z-score = 0.46

# compound COC(=O)[C@@]1(Cc2ccc(F)cc2)[C@H]2c3cc(C(=O)N4CCCC4)n(Cc4ccc(C)o4)c3C[C@H]2CN1C(=O)c1ccccc1 ; its composite z-score = -0.699

# compound CC(C)C[C@@H]1NC(=O)[C@H]2C[C@@H](C(=O)NCCCCCCN)[C@@H](c3ccc(O)cc3)N2C1=O ; its composite z-score = 0.057

# compound C#CCN(CC=C(C)C)[C@H](CO)c1ccccc1 ; its composite z-score = 0.185

# compound C=C(CCCC)C(=O)CC[C@@H](OC(=O)c1cccnc1)c1ccc(CO)o1 ; its composite z-score = 0.654

# compound N#Cc1ccc(NN2C(C(O)c3c(F)cccc3Cl)C=CC3C(=O)N(c4ccccc4)C(=O)C32)cc1 (stereo unspecified) ; its composite z-score = 0.21

# compound [N-]=[N+]=NCc1ccccc1[C@H]1OC(c2ccc(OCCCO)cc2)=N[C@@]1(Cc1ccccc1)C(=O)NCc1ccccc1 ; its composite z-score = 0.0739

# compound CCC(CC)C(O)C1C=CC2C(=O)N(C)C(=O)C2N1Nc1ccccc1 (stereo unspecified) ; its composite z-score = -0.054

# compound CCOC(=O)C1=CCC(c2ccc(C)cc2)N(S(=O)(=O)c2ccc(C)cc2)C1 (stereo unspecified) ; its composite z-score = 0.175

# compound O=C1O[C@H](c2ccccc2)[C@H](c2ccccc2)N2[C@H]1[C@@H](C(=O)Nc1nc3ccccc3s1)[C@]1(C(=O)Nc3ccc(C#CCCO)cc31)[C@H]2c1ccc(OCCO)cc1 ; its composite z-score = 0.436

# compound CC(C)C[C@@H]1NC(=O)[C@@H]2C[C@H](C(=O)NCCCCCN)[C@H](c3cccc(OCCO)c3)N2C1=O ; its composite z-score = 0.197

# compound O=C1NC(=O)C2C1C=CC(C(O)Cc1ccccc1)N2Nc1ccc(Cl)cc1Cl (stereo unspecified) ; its composite z-score = -1.29

# compound CC(=O)n1cc(C(O)C2C=CC3C(=O)N(C)C(=O)C3N2Nc2ccccc2)c2ccccc21 (stereo unspecified) ; its composite z-score = 0.532

# compound O=C1OCCC/C=C\[C@H]2OC34C=CCN(Cn5nnc6ccccc65)C(=O)[C@H]3N(CCCCCCO)C(=O)[C@@H]4C12 (stereo partly specified) ; its composite z-score = -1.17
